- System: Intestinal organoid from Göttingen minipig jejunum tissue, 2D monolayer
- assayExplanation: Cell based in vitro permeability (Papp) assay
- Format: in vitro ADME
Starred links: 1 amine or outer side, 2 acyl side, 3 side chain; linkers in the order of their positions; H or OH if unused. Non-standard residues stand in square brackets, D forms with d. Groups on a side chain read outwards from the residue. No end group written: not given here. *: point of attachment. C18 diacid = O=C(O)CCCCCCCCCCCCCCCCC(=O)*; αMePhe(2-F) = C[C@](N)(Cc1ccccc1F)C(=O)O; γGlu = O=C(O)[C@H](CCC(=O)[*:2])N[*:1]; αMe4Pal = C[C@](N)(Cc1ccncc1)C(=O)O; αMeY = C[C@](N)(Cc1ccc(O)cc1)C(=O)O; 4Pal = N[C@@H](Cc1ccncc1)C(=O)O; αMeL = CC(C)C[C@](C)(N)C(=O)O; αMeS = C[C@](N)(CO)C(=O)O; Orn = NCCC[C@H](N)C(=O)O; Dap = NC[C@H](N)C(=O)O; AEEA = NCCOCCOCC(=O)O; Aib = CC(C)(N)C(=O)O
endpointLabel: Relative Papp (Compared to internal standard)

substance	experimentalResult
H-Y[Aib]QGT[αMePhe(2-F)]TSD[4Pal][αMeS]I[αMeL]LD[Orn]K([γGlu-γGlu-C18 diacid])AQ[αMe4Pal]EFI[dE][αMeY]LIEGGPSSGAPPPSGGGE-NH2 [Example 743]	0.56
H-Y[Aib]QGTFTSDFS[Orn][αMeL]LDKK([AEEA-γGlu-C18 diacid])AQ[Aib]AFIEYLLE[dA]GPSSGAPPPSG[4Pal]-NH2 [Example 211]	0.06
H-Y[Aib]QGTFTSDFS[Dap][αMeL]LDKK([AEEA-γGlu-C18 diacid])AQ[Aib]AFIEYLLE[Aib]GPSSGAPPPSGS-NH2 [Example 134]	0.07
H-Y[Aib]QGTFTSDFS[Orn][αMeL]LDKK([γGlu-γGlu-C18 diacid])AQ[Aib]AFIEYLLEGGPSSGAPPPGGS-NH2 [Example 198]	0.12
Y[Aib]QGTFTSDFS[Orn][αMeL]LDKK([AEEA-AEEA-γGlu-C18 diacid])AQ[Aib]AFIEYLLE[dA]GPSSGEPPPSGS-NH2 [Example 155]	0.07
H-Y[Aib]QGTFTSDFS[Orn][αMeL]LDKK([AEEA-γGlu-C18 diacid])AQ[Aib]AFIEYLLEGGPSSGAPPPEGS-NH2 [Example 130]	0.06
H-Y[Aib]QGT[αMePhe(2-F)]TSD[4Pal]SI[αMeL]LD[Orn]K([AEEA-γGlu-C18 diacid])AQ[αMe4Pal][Orn]FI[dE][αMeY]LIEGGPSSGEPPPEGE-NH2 [Example 675]	0.36
H-Y[Aib]QGT[αMePhe(2-F)]TSD[4Pal]SILLDKK([γGlu-γGlu-C18 diacid])AQ[Aib]AFIE[αMeY]LEEGGPSSGAPPPSGSGE-NH2 [Example 666]	0.85
H-Y[Aib]QGTFTSDFS[Orn][αMeL]LDKK([AEEA-AEEA-γGlu-C18 diacid])AQ[Aib]AFIEYLLE[Aib]GPSSGAPPPSGT-NH2 [Example 165]	0.09
H-Y[Aib]QGT[αMePhe(2-F)]TSD[4Pal]SILLDKK([γGlu-γGlu-C18 diacid])AQ[Aib]AFIE[αMe4Pal]LEEGGPSSGAPPPSGTE-NH2 [Example 552]	0.53
H-Y[Aib]QGTFTSDFS[Orn][αMeL]LDKK([AEEA-γGlu-C18 diacid])AQ[Aib]AFIEYLLAGGPSSGEPPPSGS-NH2 [Example 94]	0.02

* * *

A collection of substances and their measured Internalization % TOP
- targetEntity: human GLP1-R (Homo sapiens, UniProt P43220)
- Sequence (P43220 24-463): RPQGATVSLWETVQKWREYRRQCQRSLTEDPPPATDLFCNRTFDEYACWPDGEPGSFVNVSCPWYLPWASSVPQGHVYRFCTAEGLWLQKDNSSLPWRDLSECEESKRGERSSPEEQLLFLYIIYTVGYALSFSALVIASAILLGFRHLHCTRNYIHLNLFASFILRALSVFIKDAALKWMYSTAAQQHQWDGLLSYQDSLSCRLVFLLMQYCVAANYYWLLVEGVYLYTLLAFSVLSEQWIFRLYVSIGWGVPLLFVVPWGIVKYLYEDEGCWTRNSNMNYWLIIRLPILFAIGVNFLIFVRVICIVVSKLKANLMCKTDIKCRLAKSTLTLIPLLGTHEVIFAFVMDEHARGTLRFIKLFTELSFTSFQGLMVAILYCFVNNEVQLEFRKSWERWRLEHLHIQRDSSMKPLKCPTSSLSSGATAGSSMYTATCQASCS
- assayExplanation: GLP1-R internalization assay in HEK293 cells
- Assay type: cell-based
- protocolConditions: normalized to maximum concentration of GLP-1 (100%)
Starred links: 1 amine or outer side, 2 acyl side, 3 side chain; linkers in the order of their positions; H or OH if unused. Non-standard residues stand in square brackets, D forms with d. Groups on a side chain read outwards from the residue. *: point of attachment. C20 diacid = O=C(O)CCCCCCCCCCCCCCCCCCC(=O)*; C18 diacid = O=C(O)CCCCCCCCCCCCCCCCC(=O)*; γGlu = O=C(O)[C@H](CCC(=O)[*:2])N[*:1]; αMe4Pal = C[C@](N)(Cc1ccncc1)C(=O)O; 4Pal = N[C@@H](Cc1ccncc1)C(=O)O; αMeL = CC(C)C[C@](C)(N)C(=O)O; Orn = NCCC[C@H](N)C(=O)O; Dab = NCC[C@H](N)C(=O)O; AEEA = NCCOCCOCC(=O)O; Aib = CC(C)(N)C(=O)O
endpointLabel: Internalization % TOP (%)

>>> df
                                  substance                              targetentity  unitabbreviation  experimentalresult
0  H-Y[Aib]QGTFTSD[4Pal]S[Dab][αMeL]LDKK([AEEA-γGlu-C18 diacid])AQ[Aib]AFIEYLIE[Aib]GESSGAPPPSGS-NH2 [Example 188]  human GLP1-R (Homo sapiens, UniProt P43220)                 %                40.2
1  H-Y[Aib]QGTFTSDFSK[αMeL]LDKK([AEEA-γGlu-C18 diacid])AQ[Aib]AFIEYLLEGGPSSGAPPPSGS-NH2 [Example 141]  human GLP1-R (Homo sapiens, UniProt P43220)                 %                64.1
2  H-Y[Aib]QGTFTSDFSK[αMeL]LDKK([AEEA-γGlu-C20 diacid])AQ[Aib]AFIEYLLAGGPSSGEPPPGEG-NH2 [Example 31]  human GLP1-R (Homo sapiens, UniProt P43220)                 %                67.4
3  H-Y[Aib]QGTFTSDFS[Orn][αMeL]LDKK([γGlu-AEEA-γGlu-C18 diacid])AQ[Aib]AFIEYLLE[Aib]GPSSGAPPPSGS-NH2 [Example 193]  human GLP1-R (Homo sapiens, UniProt P43220)                 %                50.7
4  H-Y[Aib]QGTFTSDFS[Orn][αMeL]LDKK([AEEA-AEEA-γGlu-C18 diacid])AQ[Aib]AFIEYLLE[Aib]GPSSGAPPPSGE-NH2 [Example 111]  human GLP1-R (Homo sapiens, UniProt P43220)                 %                46.4
5  H-Y[Aib]QGTFTSDFS[Orn][αMeL]LDKK([AEEA-γGlu-C18 diacid])AQ[αMe4Pal]AFIEYLIE[Aib]GESSGAPPPSGE-NH2 [Example 228]  human GLP1-R (Homo sapiens, UniProt P43220)                 %                  35

* * *

- targetEntity: hGIPR (Homo sapiens, UniProt P48546)
- Sequence (P48546 22-466): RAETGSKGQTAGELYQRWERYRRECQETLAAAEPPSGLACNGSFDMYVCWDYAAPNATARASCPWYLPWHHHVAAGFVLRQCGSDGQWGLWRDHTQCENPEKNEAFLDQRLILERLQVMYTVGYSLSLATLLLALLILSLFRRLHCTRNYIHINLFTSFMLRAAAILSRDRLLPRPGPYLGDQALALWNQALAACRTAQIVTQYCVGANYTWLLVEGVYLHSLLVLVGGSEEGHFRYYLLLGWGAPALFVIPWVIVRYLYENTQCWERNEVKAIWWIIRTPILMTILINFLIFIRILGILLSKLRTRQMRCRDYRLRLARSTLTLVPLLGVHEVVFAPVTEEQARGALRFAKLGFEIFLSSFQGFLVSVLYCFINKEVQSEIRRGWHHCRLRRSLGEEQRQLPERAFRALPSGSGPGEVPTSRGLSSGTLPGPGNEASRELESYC
- assayExplanation: Functional cAMP activity in the presence of 1% HSA
- Format: cell-based
- protocolConditions: read-out: cAMP Rel EC50, hGIPR
pEC50: −log10 of the molar value. Starred links: 1 amine or outer side, 2 acyl side, 3 side chain; linkers in the order of their positions; H or OH if unused. Non-standard residues stand in square brackets, D forms with d. Groups on a side chain read outwards from the residue. No end group written: not given here. *: point of attachment. C20 diacid = O=C(O)CCCCCCCCCCCCCCCCCCC(=O)*; C18 diacid = O=C(O)CCCCCCCCCCCCCCCCC(=O)*; αMePhe(2-F) = C[C@](N)(Cc1ccccc1F)C(=O)O; γGlu = O=C(O)[C@H](CCC(=O)[*:2])N[*:1]; αMe4Pal = C[C@](N)(Cc1ccncc1)C(=O)O; αMeY = C[C@](N)(Cc1ccc(O)cc1)C(=O)O; 4Pal = N[C@@H](Cc1ccncc1)C(=O)O; αMeL = CC(C)C[C@](C)(N)C(=O)O; αMeS = C[C@](N)(CO)C(=O)O; Orn = NCCC[C@H](N)C(=O)O; AEEA = NCCOCCOCC(=O)O; Aib = CC(C)(N)C(=O)O
pEC50 by entry:
endpointLabel: pEC50

substance	experimentalResult
H-Y[Aib]QGT[αMePhe(2-F)]TSD[4Pal][αMeS]I[αMeL]LD[Orn]K([γGlu-γGlu-C18 diacid])AQ[Aib][Orn]FI[dE][αMeY]LSEGGPSSGEPPPSGTE-NH2 [Example 517]	8.04
H-Y[Aib]QGTFTSD[4Pal]SR[αMeL]LDKK([AEEA-γGlu-C18 diacid])AQ[Aib]AFIEYLLE[Aib]GESSGAPPPSGS-NH2 [Example 132]	7.59
H-Y[Aib]QGTFTSDFS[Orn][αMeL]LDKK([AEEA-γGlu-C18 diacid])AQ[Aib]AFIEYLLAGGPSSGEPPPSGE-NH2 [Example 97]	7.62
H-Y[Aib]QGT[αMePhe(2-F)]TSD[4Pal]SI[αMeL]LD[Orn]K([γGlu-γGlu-C18 diacid])AQ[αMe4Pal]EFI[dE][αMeY]LLEGGPSSGAPPPSGE-NH2 [Example 617]	9.19
H-Y[Aib]QGTFTSDFS[Orn][αMeL]LDKK([γGlu-γGlu-C18 diacid])AQ[Aib]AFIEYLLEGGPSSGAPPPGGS-NH2 [Example 198]	7.41
H-Y[Aib]QGT[αMePhe(2-F)]TSD[4Pal][αMeS]I[αMeL]LD[Orn]K([γGlu-γGlu-C18 diacid])AQ[Aib][Orn]FI[dE][αMeY]LAEGGPSSGEPPPSGEEE-NH2 [Example 592]	8.39
Y[Aib]QGT[αMePhe(2-F)]TSD[4Pal][αMeS]I[αMeL]LD[Orn]K([γGlu-γGlu-C18 diacid])AQ[αMe4Pal]EFI[dE][αMeY]LVEGGPSSGAPPPSGSE-NH2 [Example 1162]	9.18
H-Y[Aib]QGT[αMePhe(2-F)]TSD[4Pal]SILLDKK([AEEA-γGlu-C18 diacid])AQ[Aib]AFIEYLEEGGPSSGAPPPSGTGE-NH2 [Example 662]	8.33
H-Y[Aib]QGT[αMePhe(2-F)]TSD[4Pal][αMeS]I[αMeL]LD[Orn]K([AEEA-γGlu-C18 diacid])AQ[αMe4Pal]EFI[dE][αMeY]LVEGGPSSGAPPPEGE-NH2 [Example 1158]	8.85
H-Y[Aib]QGTFTSDFS[Orn][αMeL]LDKK([AEEA-γGlu-C18 diacid])AQ[Aib]AFIEYLLEGGPSSGAPPPGGT-NH2 [Example 158]	7.61
Y[Aib]QGTFTSDFSK[αMeL]LDKK([AEEA-γGlu-C20 diacid])AQ[Aib]AFIQYLLAGGPSSGEPPPSEG-NH2 [Example 27]	7.14
H-Y[Aib]QGTFTSDFS[Orn][αMeL]LDKK([AEEA-AEEA-γGlu-C18 diacid])AQ[Aib]AFIEYLLE[dA]GPSSGEPPPSGE-NH2 [Example 117]	7.52
H-Y[Aib]QGT[αMePhe(2-F)]TSD[4Pal]SILLDKK([γGlu-γGlu-C18 diacid])AQ[Aib]AFIE[αMeY]LEEGGPSSGAPPPSGEGE-NH2 [Example 667]	8.84
H-Y[Aib]QGTFTSD[4Pal]SQ[αMeL]LDKK([γGlu-γGlu-γGlu-C18 diacid])AQ[αMe4Pal]AFIEYLIE[Aib]GPSSGAPPPSGS-NH2 [Example 859]	7.49
H-Y[Aib]QGTFTSDFS[Orn][αMeL]LDKK([AEEA-γGlu-C18 diacid])AQ[Aib]AFIEWLLEGGTSSGAPPPSGE-NH2 [Example 175]	7.53
H-Y[Aib]QGT[αMePhe(2-F)]TSD[4Pal]SILLD[Orn]K([γGlu-γGlu-C18 diacid])AQ[Aib]AFIEYLQEGGPSSGEPPPSGTEE-NH2 [Example 583]	7.91
H-Y[Aib]QGTFTSDFS[Orn][αMeL]LDKK([AEEA-γGlu-C18 diacid])AQ[Aib]AFIEWLLEGGESSGAPPPEGS-NH2 [Example 125]	7.17
H-Y[Aib]QGTFTSDYS[Orn][αMeL]LDKK([AEEA-γGlu-C18 diacid])AQ[Aib]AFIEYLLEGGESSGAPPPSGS-NH2 [Example 359]	6.99
Y[Aib]QGTFTSDFSK[αMeL]LDKK([AEEA-γGlu-C20 diacid])AQ[Aib]AFIEYLLEGGPSSGEPPPTEG-NH2 [Example 36]	6.77
H-Y[Aib]QGTFTSDFS[Orn][αMeL]LDKK([AEEA-γGlu-C18 diacid])AQ[Aib]QFIEYLLAGGPSSGAPPPEGS-NH2 [Example 96]	7.31
H-Y[Aib]QGT[αMePhe(2-F)]TSD[4Pal]SILLDKK([γGlu-γGlu-C18 diacid])AQ[Aib]AFIEYLEEGGPSSGAPPPEGTE-NH2 [Example 659]	8.24
H-Y[Aib]QGTFTSD[4Pal]SQ[αMeL]LD[Orn]K([Glu-γGlu-C18 diacid])AQ[αMe4Pal]AFIQ[αMeY]LIEGGPSSGAPPPSGSEEE-NH2 [Example 1077]	7.56
